# key: entry, value: Foxtail, Giant plant response rating (0 to 100 scale)
# Test system: foxtail, giant (giant foxtail, Setaria faberii)
# assayProcedure: Test A postemergence application, visual injury rating
# Type: in vivo
# studyConditions: 125 g ai/ha, approx. 10 d, 0 = no effect, 100 = complete control
Response field accepts a number only; no unit should be typed.

Solved entries (count: 3):
molecule: O=C(Nc1cccc(F)c1F)C1c2nnc(C(F)(F)F)n2CC1c1ccc(C(F)(F)F)cc1 (stereo not drawn)
numericValue: 0

molecule: Cc1ccc(C2Cn3c(C)nnc3C2C(=O)Nc2cccc(F)c2F)cc1C (stereo not drawn)
numericValue: 30

molecule: Cc1ccc(C2Cn3c(C)nnc3C2C(=O)Nc2cccc(F)c2C)cc1C (stereo not drawn)
numericValue: 30

Reported Foxtail, Giant plant response rating (0 to 100 scale) of CCc1ccc(C2Cn3c(C)nnc3C2C(=O)Nc2cccc(F)c2C)cc1 (stereo not drawn) : 0

For reference, reported Foxtail, Giant plant response rating (0 to 100 scale) for Cc1ccc(C2Cn3cnnc3C2C(=O)Nc2cccc(F)c2F)cc1C (stereo not drawn) stands at 60

response.value for CSc1ccccc1NC(=O)C1c2nnc(C)n2CC1c1ccc(C)c(C)c1 (stereo not drawn) (field: Foxtail, Giant plant response rating (0 to 100 scale)) = 0

The molecule O=C(Nc1cccc(F)c1F)C1c2nncn2CC1c1ccc(C(F)(F)F)cc1 (stereo not drawn) showed Foxtail, Giant plant response rating (0 to 100 scale) equal to 30

Ref: patent US10442807B2
